All figures here come from patent US20220378727A1.

# settings: plasma, i.p. drug suspension, 5 mg/kg tamibarotene, n=5
reportedMetric: Cmax (µM)
Give the quantity in µM, number only.

Entry CC1(C)CCC(C)(C)c2cc(NC(=O)c3ccc(C(=O)O)cc3)ccc21 [tamibarotene] , Cmax reported as 14.2

###

# assayInfo: in vivo
# settings: BALB/c, mouse, ip, 5 mg/kg
reportedMetric: Tmax (min)
Give the quantity in min, number only.

Entry CC1(C)CCC(C)(C)c2cc(NC(=O)c3ccc(C(=O)O)cc3)ccc21 , Tmax reported as 30

###

# assayInfo: in vivo
# settings: BALB/c, mouse, ip, 5 mg/kg, AUC0-8 h, plasma, i.p. drug suspension, 5 mg/kg tamibarotene
reportedMetric: AUC(0-t)
For clarity, give the value followed by its unit.

Entry CC1(C)CCC(C)(C)c2cc(NC(=O)c3ccc(C(=O)O)cc3)ccc21 [tamibarotene] , AUC(0-t) reported as 6000 ng·h/mL
